# literature pull: Aurora kinase A (Homo sapiens, UniProt O14965) pIC50
# Sequence (O14965 whole entry): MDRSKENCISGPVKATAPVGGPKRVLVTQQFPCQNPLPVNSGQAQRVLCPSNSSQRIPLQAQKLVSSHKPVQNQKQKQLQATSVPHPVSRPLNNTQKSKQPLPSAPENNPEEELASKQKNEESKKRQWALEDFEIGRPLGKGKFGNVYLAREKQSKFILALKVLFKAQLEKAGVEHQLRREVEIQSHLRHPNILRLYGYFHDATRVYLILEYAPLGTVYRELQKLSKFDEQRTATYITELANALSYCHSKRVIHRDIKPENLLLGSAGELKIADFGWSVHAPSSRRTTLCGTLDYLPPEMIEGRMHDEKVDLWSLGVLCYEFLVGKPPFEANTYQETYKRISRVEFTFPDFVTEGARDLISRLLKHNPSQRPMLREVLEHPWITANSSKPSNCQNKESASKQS
pIC50: −log10 of the molar value.
# class assignment by measured pIC50: low-valued = under 6, mid-valued = from 6 up to 7, high-valued = 7 and over

Below are worked cases with known answers.
CC(C)(C)c1cc(NC(=O)Nc2ccc(-c3cc(NC(=O)c4ccc(OCCN5CCCC5)cc4)[nH]n3)cc2)no1 = high-valued
CC1(COc2ccc(Cl)cc2NC(=O)Nc2cnc(C#N)cn2)COC1 = low-valued
Cc1cc(COC(=O)NCc2ccc(-c3cc(NC(=O)c4ccc(OCCN5CCOCC5)cc4)[nH]n3)cc2)no1 = low-valued
Nc1nc(-c2ccc3c(N)n[nH]c3c2)cc(N2CCCC2)n1 = low-valued
O=C(Nc1c[nH]nc1-c1nc2cc(CN3CCOCC3)ccc2[nH]1)c1ccccc1 = high-valued
c1cncc(-c2cn3ccnc3c(Nc3ccc(N4CCOCC4)cc3)n2)c1 = low-valued

Would you mind sorting "Cc1nc(Nc2cc(-c3ccc(CNC(=O)Nc4cc(C(C)(C)C)on4)cc3)n[nH]2)cc(N2CCN(CCO)CC2)n1" into the appropriate category?
mid-valued

Would you mind sorting "Cn1nc(C(=O)NCc2ccccc2)c2c1-c1nc(Nc3ccccc3)ncc1CC2" into the appropriate category?
mid-valued
